- Tested on: TYKNU
- measurementProtocol: fractional viability relative to vehicle; TYKNU is a high-grade serous ovarian cancer line; higher = less growth inhibition
- testConditions: 2uM; 72 h; genotype: sgCTRLA1 (non-targeting control)
Counter-ions that a name gives are not always drawn. Whole data set: some 2,000 compounds, median “fractional viability relative to vehicle” near 0.91, cut for the lowest 2% near 0.045. This is one part of a sample in which the lowest values are shown more often than they occur.
The label is yes for fractional viability below 1 and no for fractional viability equal to or exceeding 1.

As a guide, the following entries are already answered.
[
  {
    "compound": "CN(C)CCOc1ccc(-c2nc(-c3ccncc3)c(-c3ccc4c(c3)CC/C4=N\\O)[nH]2)cc1",
    "group": "yes"
  },
  {
    "compound": "O=C(/C=C\\n1cnc(-c2cc(C(F)(F)F)cc(C(F)(F)F)c2)n1)NNc1ccccn1 [Verdinexor (KPT-335)]",
    "group": "yes"
  },
  {
    "compound": "CC(C)NC[C@H](O)COc1ccc(CCOCC2CC2)cc1 [Levobetaxolol HCl]",
    "group": "no"
  }
]

Request: Does the reported fractional viability of the following compound sit strictly below 1? OC[C@H]1O[C@@H](c2ccc(Cl)c(Cc3ccc(O[C@H]4CCOC4)cc3)c2)[C@H](O)[C@@H](O)[C@@H]1O
Response: no

Request: # TODO verify fractional viability < 1 strictly for this compound: O=C(Nc1ccccc1)N1CCN(c2nc(-c3ccccc3)ns2)CC1
Response: no

Request: API: query returns whether the compound falls strictly under 1 in fractional viability. Query: O=C([O-])c1ccccc1O.[Na+] [Sodium salicylate]
Response: no
